- target under test: Glucocorticoid receptor (Homo sapiens) (UniProt P04150)
- Sequence (P04150 whole entry, looked up): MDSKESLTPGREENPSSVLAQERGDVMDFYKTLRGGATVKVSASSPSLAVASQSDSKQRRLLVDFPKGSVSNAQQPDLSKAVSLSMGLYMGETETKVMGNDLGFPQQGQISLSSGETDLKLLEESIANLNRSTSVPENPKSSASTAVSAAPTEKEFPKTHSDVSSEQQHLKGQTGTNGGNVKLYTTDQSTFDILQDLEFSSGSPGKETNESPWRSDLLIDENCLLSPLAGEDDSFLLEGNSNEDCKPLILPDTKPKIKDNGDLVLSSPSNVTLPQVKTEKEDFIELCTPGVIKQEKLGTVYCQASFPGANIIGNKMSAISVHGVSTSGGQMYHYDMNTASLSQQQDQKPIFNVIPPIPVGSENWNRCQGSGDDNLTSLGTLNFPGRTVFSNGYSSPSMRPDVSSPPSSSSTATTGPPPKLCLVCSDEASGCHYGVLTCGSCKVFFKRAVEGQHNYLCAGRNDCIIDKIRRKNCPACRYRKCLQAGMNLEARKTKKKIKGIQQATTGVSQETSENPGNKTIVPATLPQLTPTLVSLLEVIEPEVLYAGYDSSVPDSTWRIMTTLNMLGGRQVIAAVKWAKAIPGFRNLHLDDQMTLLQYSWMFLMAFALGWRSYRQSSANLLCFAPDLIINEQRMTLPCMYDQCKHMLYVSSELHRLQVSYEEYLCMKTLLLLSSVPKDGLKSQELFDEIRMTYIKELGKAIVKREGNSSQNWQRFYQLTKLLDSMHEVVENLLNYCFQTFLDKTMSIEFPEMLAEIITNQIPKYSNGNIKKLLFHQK
- test description: qHTS assay to identify small molecule antagonists of the glucocorticoid receptor (GR) signaling pathway (AID 720692)
- test context: GR-bla HeLa, beta-lactamase FRET ratio, dexamethasone-stimulated, 18 h; series mostly up to 58.5 µM
Records with an inconclusive call do not appear. The source made the active and inactive calls. Calls follow the shape of the dose curve; as a rule, active = well fitted inhibition curve with a large enough effect in the signal ratio in the repeat runs (not every such curve was filed as active); inconclusive = weak or mixed curves, or effect the other way; inactive = no such curve, though single readings can be large or run the other way; the % refers to the signal ratio.
# output must be one of 1 (yes) = active, 0 (no) = inactive

Illustrative cases are given below, each with its answer.
CO[C@@]12[C@H](COC(N)=O)C3=C(C(=O)C(C)=C(N)C3=O)N1C[C@@H]1N[C@@H]12
1 (yes)
CC1=CC(=O)CC(C)(C)C1(O)/C=C/C(C)=C\C(=O)O (stereo unspecified)
0 (no)
CCCC1C(CC)=CC(CC)=CN1c1ccccc1 (stereo unspecified)
1 (yes)
C=C(C)C(=O)OCCOC(=O)CC(C)=O
0 (no)
CC(C)c1nnc2ccc(-c3ocnc3-c3cc(F)ccc3F)cn12
0 (no)
C/C=C(\C)C(=O)OCCC(C)CCC=C(C)C (stereo unspecified)
0 (no)
CC1CN(c2cc3c(cc2F)c(=O)c(C(=O)O)cn3-c2ccc(F)cc2F)CCN1 (stereo unspecified)
0 (no)
COC(=O)CC(=O)C(C)(C)C
0 (no)
O=C(N/N=C/c1ccc([N+](=O)[O-])o1)c1ccc(O)cc1
0 (no)
O=C(CCCN1CCC(O)(c2ccc(Br)cc2)CC1)c1ccc(F)cc1
0 (no)

## Input What was the test verdict on CO/N=C1\CN(c2nc3c(cc2F)c(=O)c(C(=O)O)cn3C2CC2)CC1CN (stereo unspecified) ?
## Output 0 (no)

----------
- target under test: Nuclear receptor subfamily 1 group I member 3 (Homo sapiens) (UniProt Q14994)
- Sequence (Q14994 whole entry, looked up): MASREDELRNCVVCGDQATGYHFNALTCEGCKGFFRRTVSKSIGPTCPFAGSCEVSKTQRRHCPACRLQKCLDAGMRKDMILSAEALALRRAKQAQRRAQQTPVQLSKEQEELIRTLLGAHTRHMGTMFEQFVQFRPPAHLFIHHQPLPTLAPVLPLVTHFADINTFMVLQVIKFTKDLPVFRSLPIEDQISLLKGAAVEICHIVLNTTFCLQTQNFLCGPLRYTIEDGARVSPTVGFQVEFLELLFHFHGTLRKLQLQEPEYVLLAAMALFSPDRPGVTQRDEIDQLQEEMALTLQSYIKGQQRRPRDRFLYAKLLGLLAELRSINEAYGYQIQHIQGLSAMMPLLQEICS
- test description: qHTS assay to identify small molecule antagonists of the constitutive androstane receptor (CAR) signaling pathway (AID 1224838);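 also: HepG2 cells stably expressing hCAR with CYP2B6 luciferase reporter stimulated by CITCO; % is scaled to controls: 0 for no effect and ±100 for the full control effect; nearly all actives have a fitted effect of over 40% in size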
- test context: HepG2-CYP2B6-hCAR luciferase, CITCO-stimulated, 24 h; series mostly up to 92.4 µM
Inconclusive results are not listed. Active and inactive are the calls of the source. The call rests on the fitted dose curve; in most records, active means well fitted inhibition curve with a large enough effect in the repeat runs; inconclusive means weak or mixed curves, or effect the other way; inactive means no such curve, though single readings can be large or run the other way.
parameter measured: outcome

Take a look at these entries with their results.
O=[N+]([O-])c1cccc(S(=O)(=O)NCCNS(=O)(=O)c2cccc([N+](=O)[O-])c2)c1
inactive
CCCCCCCCCCCCCCC[C@H](O)[C@@H](N)CO
inactive
CCCCCCCCCCCC[N+](C)(C)CC(=O)[O-]
inactive
C[Si]1(C)O[Si](C)(C)O[Si](C)(C)O1
inactive

Could you now look at the following compound, please?
## Input Please report the recorded outcome for COCCOC(=O)C1=C(C)NC(C)=C(C(=O)OC/C=C/c2ccccc2)C1c1cccc([N+](=O)[O-])c1 (stereo not given) .
## Output inactive

----------
- test description: A CellTox Green Cytotoxicity Assay to monitor cytotoxicity in HEK293 cells - 32 hour (AID 1224881); also: % is scaled to controls: 0 for no effect and ±100 for the full control effect; nearly all actives have a fitted effect of over 40% in size
- test context: CellTox Green fluorescence; series mostly up to 76.8 µM
Results filed as inconclusive are left out. Active and inactive are the calls of the source. Calls come from the whole dose curve; as a rule, active = well fitted activation curve with a large enough effect in the repeat runs; inconclusive = weak or mixed curves; inactive = flat fitted curve, though single readings scatter.
parameter measured: cytotoxicity increase

Field: example entries. Status: answers known.
[O]=[Bi]
-0.855% [at 6.97 µM] (inactive)
COCC(O)CO (stereo not drawn)
inactive
CCCC(=O)O[C@]1(C(=O)COC(=O)CC)CC[C@H]2[C@@H]3CCC4=CC(=O)CC[C@]4(C)[C@H]3[C@@H](O)C[C@@]21C
-18.3% [at 15.8 µM] (inactive)
Cc1oc(C)c(C(=O)Nc2ccccc2)c1C
inactive
CCC(=O)Oc1ccc(/C(CC)=C(\CC)c2ccc(OC(=O)CC)cc2)cc1
inactive

## Input What cytotoxicity increase value was documented for this compound, CO/N=C1\CN(c2nc3c(cc2F)c(=O)c(C(=O)O)cn3C2CC2)CC1CN (stereo not drawn) ?
## Output inactive

## Input Which measured cytotoxicity increase value corresponds to COc1cc2c(cc1OC)-c1cc(=Nc3c(C)cc(C)cc3C)n(C)c(=O)n1CC2 ?
## Output inactive

## Input Endpoint output: cytotoxicity increase of CC(C)C(OC(=O)c1ccccc1)C(C)(C)COC(=O)c1ccccc1 (stereo not drawn) . Value?
## Output inactive

## Input Would you mind telling me what cytotoxicity increase value was observed for C[N+](C)(C)CCOC(N)=O ?
## Output inactive

## Input # cytotoxicity increase lookup, item COC(=O)Nc1nc2ccc(C(=O)c3cccs3)cc2[nH]1
## Output inactive

## Input Consider the compound shown here: CCCCCCCCCCOS(=O)(=O)O What is its recorded cytotoxicity increase?
## Output inactive

## Input Param item = COc1ccc(CCC(=O)c2c(O)cc(O[C@@H]3O[C@H](CO)[C@@H](O)[C@H](O)[C@H]3O[C@@H]3O[C@@H](C)[C@H](O)[C@@H](O)[C@H]3O)cc2O)cc1O ; retrieve measured cytotoxicity increase.
## Output inactive

## Input Any idea what its cytotoxicity increase is? The compound is Cc1nc2ccccc2s1
## Output inactive

## Input Entry under review: Fc1c(F)c(F)c(Br)c(F)c1F . Reported cytotoxicity increase?
## Output inactive

## Input Given the compound O=C(O)c1ccc(CO)o1 , what is its reported cytotoxicity increase?
## Output inactive
